Each recorded value in this set is attributed to patent US20230365714A1.

Tgt: T1, his-tagged ROR2 extracellular domain (ROR2-ECD, G&P Biosciences, cat. no. FCL0192) (human, UniProt Q01974 34-403)
T1 construct: Bought protein; also called human ROR2-ECD; recombinant human ROR2-ECD; not shown: his tag
Assay Notes: BLI (Octet), antibody on anti-human IgG Fc sensor, ROR2-ECD 1.56-100 nM as analyte
Listed here: items and their measured Kd.
All answers are understood in nM, so give the number only.

Which Kd is reported for this binder? IgG1-ROR2-A-HC5LC1-FEAR (antibody, V domains shown, Humanized variant) VH: EVQLLESGGGLVQPGGSLRLSCAASGFSLSSYSMSWVRQAPGKGLEWIGVIYVNSKTWYANWAKGRFTISKDNSKNTVYLQMNSLRAEDTATYYCARGDAGYTTNSWLWGQGTLVTVSS VL: AFELTQSPSSLSASVGDRVTITCQASESIDNYCSWYQQKPGKAPKLLIYQAFKLASGVPSRFRGSGSGTDFTLTISSLQSEDFATYYCQSYSGISTTAFGGGTEVVIK
1.6

Which Kd is reported for this binder? IgG1-ROR2-A-HC1LC1-FEAR (antibody, V domains shown, Humanized variant) VH: QSVLESGGGLVQPGGSLRLSCTVSGFSLSSYSMSWVRQAPGKGLEWIGVIYVNSKTWYANWAKGRFTISKTSTTVDLKITSPTAEDTATYFCARGDAGYTTNSWLWGQGTLVTVSS VL: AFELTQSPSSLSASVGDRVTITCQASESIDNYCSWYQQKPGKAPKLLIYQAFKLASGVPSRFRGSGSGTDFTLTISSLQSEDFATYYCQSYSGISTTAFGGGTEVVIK
1.6

Which Kd is reported for this binder? IgG1-ROR2-A-HC6LC2-FEAR (antibody, V domains shown, Humanized variant) VH: EVQLLESGGGLVQPGGSLRLSCTVSGFSLSSYSMSWVRQAPGKGLEWIGVIYVNSKTWYADSVKGRFTISKDNSKNTVYLQMNSLRAEDTATYYCARGDAGYTTNSWLWGQGTLVTVSS VL: AFELTQSPSSLSASVGDRVTITCQASESIDNYLSWYQQKPGKAPKLLIYQAFKLASGVPSRFRGSGSGTDFTLTISSLQSEDFATYYCQSYSGISTTAFGGGTEVVIK
3.9
